Kindly supply the reported % of Prodrug Remaining values for the records listed here.
Measurement conditions: rat, s9, 1 h, 2 µM
// units = %; emit number, no label

Req: Which % of Prodrug Remaining is listed for CC(C)(C)C(=O)OCOC(=O)NC[C@H](CC(=O)[O-])c1ccc(Cl)cc1.[Na+] ?
Resp: 25

Req: Which % of Prodrug Remaining value is on record for CC(C)C(=O)O[C@H](C)OC(=O)NC[C@H](CC(=O)[O-])c1ccc(Cl)cc1.[Na+] ?
Resp: 1

Req: GET /values?readout=% of Prodrug Remaining&item= CC(C)C(=O)OC(OC(=O)NC[C@H](CC(=O)[O-])c1ccc(Cl)cc1)C1CCCCC1.[Na+] (some centres unmarked)
Resp: 4

Req: Could you share which % of Prodrug Remaining value was measured for CC(=O)OC(OC(=O)NC[C@H](CC(=O)[O-])c1ccc(Cl)cc1)C(C)C.[Na+] (some centres unmarked) ?
Resp: 3

Req: Would you kindly share the measured % of Prodrug Remaining for CCCC(=O)OC(OC(=O)NC[C@H](CC(=O)[O-])c1ccc(Cl)cc1)C1CCCCC1.[Na+] (some centres unmarked) ?
Resp: 2

Req: Dear colleague, I am looking for the recorded % of Prodrug Remaining of the following compound: CC(=O)OCOC(=O)NC[C@H](CC(=O)[O-])c1ccc(Cl)cc1.[Na+]
Resp: 0

Req: Please report the recorded % of Prodrug Remaining for O=C([O-])C[C@@H](CNC(=O)OCOC(=O)c1cccs1)c1ccc(Cl)cc1.[Na+] .
Resp: 2

Req: Using the record for CCC[C@H](OC(=O)NC[C@H](CC(=O)[O-])c1ccc(Cl)cc1)OC(=O)C(C)C.[Na+] , report its % of Prodrug Remaining.
Resp: 22

###

Procedure text: physchem
Measurement conditions: aqueous buffer, pH 8
For each entry below, report its degraded at 1 h value.
Answer with a number only, understood to be in %.

Req: Please give the measured degraded at 1 h for this compound: CC(=O)OC(C)OC(=O)NC[C@H](CC(=O)O)c1ccc(Cl)cc1 (stereo partly drawn)
Resp: 3

Req: Param item = CCCC(=O)OCOC(=O)NC[C@H](CC(=O)O)c1ccc(Cl)cc1 ; retrieve measured degraded at 1 h.
Resp: 0

Req: Sample CC(C)C(=O)OCOC(=O)NC[C@H](CC(=O)O)c1ccc(Cl)cc1 — what was its degraded at 1 h?
Resp: 0

###

Procedure text: Pancreatin stability
Assay type: in vitro ADME, porcine
Measurement conditions: pig, pancreatin, pH 7.5; read-out: % of Prodrug Remaining
Method: Pancreatin Stability: Stability studies were conducted by incubating prodrug (5 µM) with 1 % (w/v) pancreatin (Sigma, P-1625, from porcine pancreas) in 0.025 M Tris buffer containing 0.5 M NaCl (pH 7.5) at 37 °C for 60 min. The reaction was stopped by addition of 2 volumes of methanol. After centrifugation at 14,000 rpm for 10 min, the supernatant was removed and analyzed by LC/MS/MS.
Measurement label: remaining at 1 h, 5 µM (%)
Give the quantity in %, number only.

Req: Find the recorded remaining at 1 h, 5 µM belonging to CC(C)C(=O)O[C@@H](OC(=O)NC[C@H](CC(=O)O)c1ccc(Cl)cc1)C(C)C and report it.
Resp: 90

###

Measurement conditions: rat, s9, 1 h, 2 µM
Measurement label: % of Baclofen Released (%)
Provide only the numeric value, understood in %.

Req: Dear colleague, I am looking for the recorded % of Baclofen Released of the following molecule: O=C([O-])C[C@@H](CNC(=O)OCOC(=O)c1ccccc1)c1ccc(Cl)cc1.[Na+] [(12)]
Resp: 100

Req: Requested read-out: % of Baclofen Released. Entry: CCOC(C)(OCC)C(=O)OCOC(=O)NC[C@H](CC(=O)[O-])c1ccc(Cl)cc1.[Na+] [(51)]
Resp: 103

Req: What does the record list as % of Baclofen Released for CCCC(=O)OC(OC(=O)NC[C@H](CC(=O)[O-])c1ccc(Cl)cc1)C1CCCCC1.[Na+] (some centres unmarked) [(85)] ?
Resp: 91

Req: What measured % of Baclofen Released goes with CC(OC(=O)NC[C@H](CC(=O)[O-])c1ccc(Cl)cc1)OC(=O)C(C)C.[Na+] (some centres unmarked) [(33)] ?
Resp: 101

Req: Can you look up the measured % of Baclofen Released of CC(C)C(=O)O[C@H](C)OC(=O)NC[C@H](CC(=O)[O-])c1ccc(Cl)cc1.[Na+] [(34)] for me?
Resp: 100

Req: Could you share which % of Baclofen Released value was measured for CC(C)C(=O)OC(OC(=O)NC[C@H](CC(=O)[O-])c1ccc(Cl)cc1)C1CCCCC1.[Na+] (some centres unmarked) [(84)] ?
Resp: 91

Req: Give its % of Baclofen Released value. Item: CC(C)C(=O)O[C@H](OC(=O)NC[C@H](CC(=O)[O-])c1ccc(Cl)cc1)C(C)C.[Na+] [(100)]
Resp: 85

Req: Endpoint output: % of Baclofen Released of CCC[C@H](OC(=O)NC[C@H](CC(=O)[O-])c1ccc(Cl)cc1)OC(=O)C(C)C.[Na+] [(91)] . Value?
Resp: 70

###

Procedure text: physchem
Measurement conditions: aqueous buffer, pH 8, % of Baclofen Released
Task for the reader: assign each of the following compounds its reported degraded at 1 h.
Enter your answer as a number in %; do not include the unit.

Req: Any idea what degraded at 1 h was measured for CC(C)C(OC(=O)NC[C@H](CC(=O)O)c1ccc(Cl)cc1)OC(=O)C(C)(C)C (stereo partly drawn) [(43)] ?
Resp: 0

Req: Name the recorded degraded at 1 h for CCCC(=O)OC(OC(=O)NC[C@H](CC(=O)O)c1ccc(Cl)cc1)C(C)C (stereo partly drawn) [(27)] .
Resp: 1

Req: Give its degraded at 1 h value. Item: CCCC(=O)O[C@H](CCC)OC(=O)NC[C@H](CC(=O)O)c1ccc(Cl)cc1 [(86)]
Resp: 2

###

Procedure text: in vitro
Measurement conditions: rat, s9
Measurement label: metabolised at 1 h, 2 µM
In your response, put the unit directly after the numeric value.

Req: I'd like to know its metabolised at 1 h, 2 µM. The compound in question is CC(=O)OC(C)OC(=O)NC[C@H](CC(=O)O)c1ccc(Cl)cc1 (stereo partly drawn)
Resp: 85%

Req: Request the reported metabolised at 1 h, 2 µM associated with CC(C)C(=O)OCOC(=O)NC[C@H](CC(=O)O)c1ccc(Cl)cc1
Resp: 100%

Req: I am curious: what metabolised at 1 h, 2 µM value has been reported for CCCC(=O)OCOC(=O)NC[C@H](CC(=O)O)c1ccc(Cl)cc1 ?
Resp: 100%

###

Kindly state % of Baclofen Released for each of the entries shown.
Measurement conditions: rat, s9, 1 h, 2 µM
Please append the unit to your numeric answer.

Req: If you can, please state the reported % of Baclofen Released value of CC(C)C(=O)OC(OC(=O)NC[C@H](CC(=O)[O-])c1ccc(Cl)cc1)C(C)C.[Na+] (stereo partly drawn) [(25)] .
Resp: 98%

Req: Endpoint output: % of Baclofen Released of CC(=O)OC(OC(=O)NC[C@H](CC(=O)[O-])c1ccc(Cl)cc1)C(C)C.[Na+] (stereo partly drawn) [(23)] . Value?
Resp: 107%

Req: Form field: reported % of Baclofen Released of CC(C)CC(=O)OCOC(=O)NC[C@H](CC(=O)[O-])c1ccc(Cl)cc1.[Na+] [(59)]
Resp: 85%

Req: Find the recorded % of Baclofen Released belonging to CC(C)(C)C(=O)OCOC(=O)NC[C@H](CC(=O)[O-])c1ccc(Cl)cc1.[Na+] [(20)] and report it.
Resp: 75%

Req: I have this compound here, O=C([O-])C[C@@H](CNC(=O)OCOC(=O)c1cccs1)c1ccc(Cl)cc1.[Na+] [(57)] , and I need its recorded % of Baclofen Released.
Resp: 78%

Req: Find the recorded % of Baclofen Released belonging to CC(=O)OCOC(=O)NC[C@H](CC(=O)[O-])c1ccc(Cl)cc1.[Na+] [(10)] and report it.
Resp: 78%

###

Measurement conditions: aqueous buffer, 1 h, pH 2
Measurement label: % of Baclofen Released (%)
Field: numeric (%). Do not append units.

Req: Recorded % of Baclofen Released for CCOC(C)(OCC)C(=O)OCOC(=O)NC[C@H](CC(=O)[O-])c1ccc(Cl)cc1.[Na+] , please?
Resp: 0

Req: // query % of Baclofen Released value for entry CC(=O)OCOC(=O)NC[C@H](CC(=O)[O-])c1ccc(Cl)cc1.[Na+]
Resp: 1

Req: Requested field: % of Baclofen Released. Item: CC(=O)OC(OC(=O)NC[C@H](CC(=O)[O-])c1ccc(Cl)cc1)C(C)C.[Na+] (stereo partly drawn)
Resp: 0

Req: I'd like to know its % of Baclofen Released. The compound in question is CC(C)C(=O)O[C@H](C)OC(=O)NC[C@H](CC(=O)[O-])c1ccc(Cl)cc1.[Na+]
Resp: 0

Req: Using the record for CC(C)C(=O)OC(OC(=O)NC[C@H](CC(=O)[O-])c1ccc(Cl)cc1)C1CCCCC1.[Na+] (stereo partly drawn) , report its % of Baclofen Released.
Resp: 0

Req: Field request: % of Baclofen Released | item: O=C([O-])C[C@@H](CNC(=O)OCOC(=O)c1cccs1)c1ccc(Cl)cc1.[Na+]
Resp: 0

Data origin, for the record: patent EP1660440B1
